# TARGET ENTITY: MMP-9 (Homo sapiens, UniProt P14780)
# Construct: purchased SIGMA PF024
# Sequence (P14780 94-707): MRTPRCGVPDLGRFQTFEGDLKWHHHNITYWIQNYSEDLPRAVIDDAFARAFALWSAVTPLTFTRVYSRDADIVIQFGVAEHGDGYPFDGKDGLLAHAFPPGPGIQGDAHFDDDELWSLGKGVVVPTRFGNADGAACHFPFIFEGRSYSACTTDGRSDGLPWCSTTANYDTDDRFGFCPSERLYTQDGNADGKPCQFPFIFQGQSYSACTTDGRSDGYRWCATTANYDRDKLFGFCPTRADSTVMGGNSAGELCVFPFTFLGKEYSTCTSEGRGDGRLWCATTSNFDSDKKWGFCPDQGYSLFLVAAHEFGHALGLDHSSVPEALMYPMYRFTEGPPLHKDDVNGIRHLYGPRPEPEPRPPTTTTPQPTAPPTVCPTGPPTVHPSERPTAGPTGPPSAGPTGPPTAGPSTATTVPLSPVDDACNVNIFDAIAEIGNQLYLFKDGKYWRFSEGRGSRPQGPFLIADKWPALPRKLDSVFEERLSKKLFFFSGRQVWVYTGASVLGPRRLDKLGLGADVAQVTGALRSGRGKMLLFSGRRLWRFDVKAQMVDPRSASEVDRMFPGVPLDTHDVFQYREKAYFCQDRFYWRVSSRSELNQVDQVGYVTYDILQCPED
# ASSAY PROCEDURE: FRET peptide cleavage efficiency with MMP-9 (standard pH 7.5; also pH 6.5)
# Format: biochemical
# CONDITION DETAILS: t = 15 min (Table 9)
Square brackets hold non-standard residues; d marks the D form. Ends that are not written are not given here. Tyr(3-NO2) = N[C@@H](Cc1ccc(O)c([N+](=O)[O-])c1)C(=O)O; 2Abz = Nc1ccccc1C(=O)O
PROPERTY: % cleavage MMP-9 t = 15 min (%)
Give bare numbers, in %.

> print(dat)
                                  substance  unit.name  reported.result
1  SGRVANLVG (not fully specified (N-terminus, C-terminus)) [LNK017]          %               43
2  RGRKSQPLVD ([2Abz]RGRKSQPLVD[Tyr(3-NO2)]-NH2) [LNK041]          %                0
3  SGRVAPYMLQG ([2Abz]SGRVAPYMLQG[Tyr(3-NO2)]-NH2) [LNK042]          %               55
4  SGRVANPLGGSG ([2Abz]SGRVANPLGGSG[Tyr(3-NO2)]-NH2) [LNK053]          %                1

Quick request: % cleavage MMP-9 t = 15 min for each listed item, please.
1. RGRRVANYFGKL ([2Abz]RGRRVANYFGKL[Tyr(3-NO2)]-NH2) [LNK055]
2. RSSYRSL ([2Abz]RSSYRSL[Tyr(3-NO2)]-NH2) [LNK075]
3. RGRKVANLVG ([2Abz]RGRKVANLVG[Tyr(3-NO2)]-NH2) [LNK031]
4. RGRKSPANLVG ([2Abz]RGRKSPANLVG[Tyr(3-NO2)]-NH2) [LNK034]
5. RGRRHSSKLQPLGYFGKL ([2Abz]RGRRHSSKLQPLGYFGKL[Tyr(3-NO2)]-NH2) [LNK062]

Response:
1: 35; 2: 1; 3: 75; 4: 100; 5: 41

###

# TARGET ENTITY: MMP-7 (Homo sapiens)
# Construct: purchased SIGMA CC1059
# Sequence (P09237 95-267): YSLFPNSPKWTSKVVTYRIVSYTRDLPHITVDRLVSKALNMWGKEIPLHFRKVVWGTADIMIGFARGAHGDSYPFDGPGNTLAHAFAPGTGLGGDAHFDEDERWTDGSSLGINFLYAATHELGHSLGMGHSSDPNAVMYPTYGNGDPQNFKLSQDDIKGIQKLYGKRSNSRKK
# ASSAY PROCEDURE: FRET peptide cleavage efficiency with MMP-7 (standard pH 7.5; also pH 6.5)
# Format: biochemical
# CONDITION DETAILS: t = 15 min (Table 9)
Square brackets hold non-standard residues; d marks the D form. Ends that are not written are not given here. Tyr(3-NO2) = N[C@@H](Cc1ccc(O)c([N+](=O)[O-])c1)C(=O)O; 2Abz = Nc1ccccc1C(=O)O
Would you mind telling me the reported % cleavage MMP-7 t = 15 min of each entry?
Show the value, then the unit it is measured in.

> print(dat)
                           monomer.sequence         target.entity  reported.result
1  RGRRPLGLAGGSG ([2Abz]RGRRPLGLAGGSG[Tyr(3-NO2)]-NH2) [LNK051]  MMP-7 (Homo sapiens)               3%
2  GSGSGSGS ([2Abz]GSGSGSGS[Tyr(3-NO2)]-NH2) [LNK064]  MMP-7 (Homo sapiens)               0%
3  SSRGPYMLQG ([2Abz]SSRGPYMLQG[Tyr(3-NO2)]-NH2) [LNK022]  MMP-7 (Homo sapiens)              40%

Quick request: % cleavage MMP-7 t = 15 min for each listed item, please.
1. SGRVQPLVD (not fully specified (N-terminus, C-terminus)) [LNK047]
2. SGRVLRKAGPANLVG ([2Abz]SGRVLRKAGPANLVG[Tyr(3-NO2)]-NH2) [LNK014]
3. RGRRVANPLGYFGKL ([2Abz]RGRRVANPLGYFGKL[Tyr(3-NO2)]-NH2) [LNK058]
4. RGRKPQPLVD ([2Abz]RGRKPQPLVD[Tyr(3-NO2)]-NH2) [LNK039]
5. RGRRVANYFGKL ([2Abz]RGRRVANYFGKL[Tyr(3-NO2)]-NH2) [LNK055]
6. SGRVANPLGGSG ([2Abz]SGRVANPLGGSG[Tyr(3-NO2)]-NH2) [LNK053]

Response:
1. 20%
2. 25%
3. 0%
4. 35%
5. 0%
6. 0%
